Measured z-score values are reported for all entries that follow.
Experiment: plasmodial surface anion channel blockers, osmotic lysis – cell-based, P. falciparum Indochina, OD700, 2 h, primary screen (AID 1155);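 further: lysis reports solute entry through the parasite surface anion channel PSAC; channel blockers reduce lysis of infected cells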
Settings: P. falciparum Indochina infected erythrocytes, higher = more signal, called active from +8 up or from −8 down
In your answer, state the number alone without any accompanying words.

Consider the following illustrative entries.
C=C(COC)C(=O)CC[C@H](OC(=O)c1cccnc1)c1ccc(OCCO)cc1	1.2
OCCCC1=CC(c2ccc(CN3CCCC3)cc2)N(Cc2cccc(OC(F)(F)F)c2)CC1 (centres undefined)	0.935

Ask | Name the recorded z-score for `COCCOC(=O)N1C(=O)[C@@]2(c3cc(C#Cc4ccc(OC)cc4)ccc31)[C@H](c1ccc(OCCO)cc1)N1[C@H](c3ccccc3)[C@H](c3ccccc3)OC(=O)[C@H]1[C@@H]2C(=O)NC[C@H](O)c1ccccc1` .
Reply | 2.07

Ask | Same read-out for `COC(=O)[C@@]1(Cc2ccccc2)[C@H]2c3cc(C(=O)N(C)C)n(CCSC(=N)N)c3C[C@H]2CN1C(=O)c1ccccc1` ?
Reply | 0.542

Ask | Same read-out for `CO[C@H]1O[C@H](CO)[C@@H](OC(=O)Nc2ccc3c(c2)OCO3)[C@H](OC(=O)Nc2ccccc2-c2ccccc2)[C@H]1OC(=O)Nc1ccccc1-c1ccccc1` ?
Reply | 0.825

Ask | Same read-out for [N-]=[N+]=Nc1ccccc1C[C@@]1(C(=O)NCC(O)CO)N=C(c2ccc(OCCCO)cc2)O[C@@H]1c1ccccc1 (some centres undefined) ?
Reply | 14.1

Ask | Same read-out for `CN(C)CCCC[C@@H]1NC(=O)[C@@H]2C[C@H](C(=O)NCCCCCCNC(=O)CS)[C@H](c3ccc(O)cc3)N2C1=O` ?
Reply | 0.284

Ask | Same read-out for `C=C(CCCC)C(=O)CC[C@H](OC(=O)c1ccccc1-c1ccccc1C(=O)O)c1ccc(OCCO)cc1` ?
Reply | 1.38

Ask | Same read-out for `CC(C)N1C(=O)c2ccccc2[C@](C)(C(=O)NCC(F)(F)F)[C@@H]1c1ccc(CO)cc1` ?
Reply | -0.0162

Ask | Same read-out for `CC(C)C(=C=CC[C@H](O)c1ccccc1OCCO)C[C@H](O)c1cc(Cl)cc(Cl)c1O` ?
Reply | 4.2

Ask | Same read-out for `COC(=O)[C@@]1(Cc2ccccc2)[C@H]2c3cc(C(=O)N(C)C)n(Cc4ccc(C(F)(F)F)nc4)c3C[C@H]2CN1C(=O)c1ccccc1` ?
Reply | 0.234

Ask | Same read-out for `CCCN1C(=O)[C@@]2(c3ccc([N+](=O)[O-])cc3)CC(=O)N(CC34CC5CC(CC(C5)C3)C4)[C@@H]2c2ccc(CO)cc21` ?
Reply | 0.0149

Ask | Same read-out for `COc1ccc([Si](C)(C)[C@@H]2[C@@H](CC(=O)N3Cc4ccccc4C[C@H]3CO)O[C@]3(C(=O)N(Cc4cccc(N5CCOC5=O)c4)c4ccccc43)[C@H]2C)cc1` ?
Reply | 1.06

Ask | Same read-out for `Cc1ccc(S[C@]2(C(=O)NCCCN(C)C)CC(=O)N(Cc3ccccc3C(F)(F)F)[C@@H]2c2ccc(CO)cc2I)cc1` ?
Reply | 0.684

---

System: Fibrinogen (Alexa647-labelled)
Assay: Alexa647-fibrinogen binding to printed small molecules – biochemical, small-molecule microarray, 635/667 nm fluorescence, artefact control for SMM control-protein annotation, profiling panel (AID 1131);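 further: z-score merges 667 nm fluorescence with per-spot signal-to-noise over triplicate slides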
Details: fibrinogen-A647 binding fluorescence, higher = more signal
testReadout: composite z-score

Consider the following illustrative entries.
COC(=O)[C@@]1(Cc2ccc(F)cc2)[C@H]2c3cc(C(=O)N4CCCC4)n(CCc4ccccn4)c3C[C@H]2CN1C(=O)c1ccccc1	0.97
O=C(NCCN1CCOCC1)[C@@H]1c2ccccc2C(=O)N(Cc2ccccc2C(F)(F)F)[C@H]1c1ccc(CO)cc1	-0.676
COc1cc(OC)c(C(O)C2C=CC3C(=O)N(c4ccccc4)C(=O)C3N2Nc2ccc(C(C)C)cc2)cc1Br (stereo not given)	0.885
COc1ccc(NN2C(C(O)c3ccc(I)cc3)C=CC3C(=O)N(C4CCCCC4)C(=O)C32)cc1 (stereo not given)	0.951
Cc1ccc(S[C@]2(C(=O)NC3CC3)CC(=O)N(C(C)C)[C@@H]2c2ccc(CO)cc2I)cc1	-0.36

Ask | Name the recorded composite z-score for COC(=O)C1=CC(CCCO)=CC(c2cccs2)N(Cc2cc3c(cc2Br)OCO3)C=C1C(=O)OC (stereo not given) .
Reply | 0.999

Ask | Same read-out for `O=C1O[C@@H](c2ccccc2)[C@@H](c2ccccc2)N2[C@@H](c3ccc(OCCO)cc3)[C@]3(C(=O)Nc4ccc(C#CCCO)cc43)[C@@H](C(=O)O)[C@H]12` ?
Reply | 0.95

Ask | Same read-out for `COc1cc(CO)cc(I)c1O[C@H]1C=C(C(=O)NCCO)C[C@@H]2O[C@H]12` ?
Reply | 0.4

---

Experiment: JC-1 mitochondrial signal, unstimulated HepG2 cells – cell-based, JC-1 fluorescence, 24 h, 100 nL compound, profiling panel (AID 1167); further: test concentration not given here
Details: HepG2 mitochondrial potential, higher = more signal
Measured z-score values are reported for all entries that follow.
In your answer, state the number alone without any accompanying words.

Consider the following illustrative entries.
CN(C)CCCC[C@@H]1NC(=O)[C@H]2C[C@@H](C(=O)O)[C@@H](c3ccc(O)cc3)N2C1=O	-0.0533
C[C@@H]1ON(c2ccc(I)cc2)[C@H](c2cccc(NC(=O)OCC3c4ccccc4-c4ccccc43)c2)[C@H]1C(=O)N1C(=O)OC[C@H]1Cc1ccccc1	-0.194
[N-]=[N+]=NCc1ccccc1[C@@H]1OC(c2ccc(OCCCO)cc2)=N[C@]1(Cc1ccccc1N=[N+]=[N-])C(=O)O	-1.44

Ask | Name the recorded z-score for `NC(=O)NCC#Cc1ccc2c(c1)[C@]1(C(=O)N2)[C@H](c2ccc(OCCO)cc2)N2[C@H](c3ccccc3)[C@H](c3ccccc3)OC(=O)[C@H]2[C@@H]1C(=O)O` .
Reply | -1.9

Ask | Same read-out for `COc1cc(CO)cc(I)c1O[C@H]1C=C(C(=O)NCCO)C[C@@H](NC2CCCCCC2)[C@@H]1O` ?
Reply | 1.09

Ask | Same read-out for COc1ccc(C(O)C2C=CC3C(=O)NC(=O)C3N2Nc2ccc(Cl)cc2Cl)c2ccccc12 (configuration not stated) ?
Reply | -3.88

Ask | Same read-out for `C=C(COC)/C(=C/C[C@H](OC(C)=O)c1ccccc1OCCO)c1cc(C(=O)OC)ccc1OC` ?
Reply | 0.532

---

Target: Follistatin-related protein 3 (Homo sapiens) (UniProt O95633)
Sequence (O95633 whole entry, looked up): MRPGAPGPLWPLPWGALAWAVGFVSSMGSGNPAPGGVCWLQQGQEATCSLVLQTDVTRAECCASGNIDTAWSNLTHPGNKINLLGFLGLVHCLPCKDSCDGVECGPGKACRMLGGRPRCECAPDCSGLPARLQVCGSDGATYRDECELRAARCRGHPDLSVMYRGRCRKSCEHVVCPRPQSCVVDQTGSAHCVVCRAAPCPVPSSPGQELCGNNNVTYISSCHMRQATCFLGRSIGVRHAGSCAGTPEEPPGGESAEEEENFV
Assay: compounds binding follistatin-related protein 3 – biochemical, small-molecule microarray, 635 nm fluorescence, primary screen (AID 1105);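 further: score merges emission near 667 nm and signal to noise per printed spot across three slides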
Conditions: FSTL3 binding, higher = more signal
testReadout: composite z-score
In your answer, state the number alone without any accompanying words.

Consider the following illustrative entries.
CCCCCCc1nc(-c2ccc(-c3ccc(Cl)c(Cl)c3)o2)cc2c1[Si](C(C)C)(C(C)C)OC2	-0.816
COc1ccc([Si](C)(C)[C@H]2[C@H](CC(=O)N3CCC[C@H]3CO)O[C@@]3(C(=O)N(Cc4ccc(N5CCCCC5=O)cc4)c4ccccc43)[C@@H]2C)cc1	1.23
C=C(CCCC)/C(=C/C[C@@H](OC(C)=O)c1ccc(CO)o1)c1cnc2ccccc2c1	1.4

Ask | Name the recorded composite z-score for `C=C(CCCC)C(=O)CC[C@@H](OC(=O)c1ccccc1-c1ccccc1C(=O)O)c1ccccc1OCCO` .
Reply | 0.27

---

Molecular target: Carbonic anhydrase 2 (Homo sapiens)
Assay: compounds binding carbonic anhydrase 2 – biochemical, small-molecule microarray, Alexa647-labelled CAII, profiling panel (AID 1122)
Details: CAII-A647 binding fluorescence, higher = more signal
The label depends only on composite z-score: satisfied if it is at least 0.6, not satisfied if it is smaller.

C=C(COC)/C(=C/C[C@H](OC(C)=O)c1ccccc1OCCO)c1cc(C(=O)OC)ccc1OC	not satisfied

Ask | Form field: composite z-score at least 0.6? Entry: `C=CCNC(=O)[C@H]1[C@@H]2C(=O)O[C@@H](c3ccccc3)[C@@H](c3ccccc3)N2[C@@H](c2ccc(OCCO)cc2)[C@]12C(=O)Nc1ccc(C#CC3(O)CCCCCC3)cc12`
Reply | not satisfied

Ask | Same read-out for `COCCOC(=O)N1C(=O)[C@@]2(c3ccccc31)[C@H](C(=O)N1CCN(c3ncccn3)CC1)[C@H]1C(=O)O[C@H](c3ccccc3)[C@H](c3ccccc3)N1[C@@H]2c1ccccc1OCCO` ?
Reply | not satisfied

Ask | Same read-out for `C[C@@H]1ON(c2ccccc2)[C@H](c2ccccc2)[C@H]1C(=O)O` ?
Reply | satisfied

Ask | Same read-out for `COCCOC(=O)N1C(=O)[C@@]2(c3cc(C#CCC(C(=O)OC)C(=O)OC)ccc31)[C@H](C(=O)Nc1nc3ccccc3s1)[C@H]1C(=O)O[C@H](c3ccccc3)[C@H](c3ccccc3)N1[C@@H]2c1ccc(OCCO)cc1` ?
Reply | not satisfied

Ask | Same read-out for `COC(=O)[C@@]1(Cc2ccc(OC)cc2)[C@H]2c3cc(C(=O)N4CCCC4)n(Cc4ccc(Cl)c(C(F)(F)F)c4)c3C[C@H]2CN1C(=O)c1ccccc1` ?
Reply | satisfied

Ask | Same read-out for `O=C(NCCN1CCOCC1)[C@@H]1c2ccccc2C(=O)N(Cc2ccc(OC(F)(F)F)cc2)[C@H]1c1ccc(CO)cc1` ?
Reply | satisfied

Ask | Same read-out for `COC(=O)[C@@]1(Cc2ccccc2)[C@H]2c3cc(C(=O)N4CCCC4)n(Cc4ccc(OC)c(OC)c4)c3C[C@H]2CN1C(=O)c1ccccc1` ?
Reply | satisfied

Ask | Same read-out for `C=CC[C@@]1(C(=O)N(C)C)N=C(c2ccc(OCCCO)cc2)O[C@@H]1c1ccccc1CN=[N+]=[N-]` ?
Reply | not satisfied

Ask | Same read-out for COc1ccc(C(O)C2C=CC3C(=O)N(c4ccccc4)C(=O)C3N2Nc2ccc(C#N)cc2)cc1OCc1ccccc1 (stereo not drawn) ?
Reply | satisfied

Source: PubChem BioAssay
